Measured values drawn from patent US8946266B2 for this set.

tested on: Aβ42; assay: γ-secretase-modulating activity, Method 2: Aβ42 Alphalisa in supernatant of SKNBE2 cells carrying APP 695-wild type (Table 3b); type: cell-based; details: overnight
Attribute: IC50
READOUT_NAME: IC50 (nM)

[[record]]
compound = "COc1nc(-c2nc(-c3cccc(C(F)(F)F)c3)n(C(C)C)n2)ccc1-n1cnc(C)c1.Cl.Cl"
study_system = "Aβ42"
value_reported = 135

[[record]]
compound = "COc1nc(-c2nc3n(n2)CCCC3c2ccc(F)cc2)ccc1-n1cnc(C)c1 (stereo not shown)"
study_system = "Aβ42"
value_reported = 170

[[record]]
compound = "COc1ccc(C)c(Nc2nc(-c3ccc(-n4cnc(C)c4)c(OC)c3)nn2C)c1"
study_system = "Aβ42"
value_reported = 16

[[record]]
compound = "COc1cc(-c2nc(Nc3cccnc3C(F)(F)F)n(C)n2)ccc1-n1cnc(C)c1"
study_system = "Aβ42"
value_reported = 603

